# target: HLA B*5101 (Homo sapiens, UniProt P01889, A329T/A93T/A95T/C349S/D138N/D201E/D98Y/E187L/E204Q/E69T/G107R/I218V/K202T/L105A/L119W/N104I/Q94N/R106L/R155S/R180L/S101N/S121T/S35A/S48A/V306I/V36M/Y195H/Y91F)
# Format: binding
# Normalized average relative binding affinity(ARB) listing for each entry below

Worked cases, answers included:
1) XXXXXXXLX [3064.0150] : 0.86
2) XXXXXQXXX [3064.0114] : 0.39
3) XXXXXXSXX [3064.0136] : 0.51
4) XXXXXXXWX [3064.0159] : 0.20
5) XXXKXXXXX [3064.0069] : 0.90
6) XXXXXXEXX [3064.0124] : 0.37
7) XXXXXLXXX [3064.0110] : 0.55
8) XXXXIXXXX [3064.0088] : 0.33

Need Normalized average relative binding affinity(ARB) of XXXXXXXPX [3064.0153] , thanks.
0.51

What does the data say about its Normalized average relative binding affinity(ARB)? Entry: XXXXCXXXX [3064.0082]
0.38

Which Normalized average relative binding affinity(ARB) reading was recorded for the sequence XXXXXTXXX [3064.0117] ?
0.32

Query (sequence): XXXXHXXXX [3064.0087] ; field requested: Normalized average relative binding affinity(ARB)
0.35

What does the data say about its Normalized average relative binding affinity(ARB)? Entry: XXXXXNXXX [3064.0112]
0.40

Would you mind telling me what Normalized average relative binding affinity(ARB) value was observed for XXXXXXXEX [3064.0144] ?
0.34

Tell me the measured Normalized average relative binding affinity(ARB) of XXXXXIXXX [3064.0108] , please.
0.74

So what's the measured Normalized average relative binding affinity(ARB) for this one? XXXXSXXXX [3064.0096]
0.35

Any idea what Normalized average relative binding affinity(ARB) was measured for XXXXXRXXX [3064.0115] ?
0.27

---

# target: HLA B*5301 (Homo sapiens, UniProt P01889, A329T/A93T/A95T/C349S/D201E/D98Y/E176V/E187L/E204Q/E69T/G107R/I218V/K202T/L105A/L119I/N104I/Q94N/R106L/R155S/R180L/S101N/S121R/S35A/S48A/T118I/V127L/V306I/V36M/Y140S/Y91F)
# Assay type: binding
# Normalized average relative binding affinity(ARB) per entry

For the sequence shown here, XXXXXAXXX [3064.0101] , give the reported Normalized average relative binding affinity(ARB).
0.65

---

# target: HLA B*1503 (Homo sapiens, UniProt P01889, A329T/A93T/A95T/C349S/D201E/D98Y/E187L/E204Q/K202T/N87E/Q94N/R155S/R180L/S121R/S35A/V306I/V36M/Y140S/Y91S)
# assay-notes: biochemical
Where a SMILES comes first, the peptide text is derived from it.
Below, each entry is listed with its recorded IC50.
State the value with its unit after it.

Look over these answered cases.
1. CSCC[C@H](NC(=O)[C@H](CCCCN)NC(=O)[C@H](CCC(N)=O)NC(=O)[C@@H](N)CCCCN)C(=O)N[C@@H](Cc1ccccc1)C(=O)N[C@@H](CO)C(=O)N[C@@H](CC(N)=O)C(=O)N[C@@H](CC(N)=O)C(=O)N[C@H](C(=O)O)C(C)C [3102.1248] (H-KQKMFSNNV-OH) : 19 nM
2. CC(C)C[C@H](NC(=O)[C@H](CC(C)C)NC(=O)[C@H](CCCNC(=N)N)NC(=O)[C@H](CCCNC(=N)N)NC(=O)[C@@H](NC(=O)[C@H](Cc1c[nH]cn1)NC(=O)[C@@H](N)Cc1ccccc1)C(C)C)C(=O)N[C@@H](CCCCN)C(=O)N[C@@H](Cc1ccccc1)C(=O)O [3102.1241] (H-FHVRRLLKF-OH) : 21 nM

// moving on: another record for IC50
What IC50 value was documented for this compound, CC[C@H](C)[C@H](NC(=O)[C@@H](N)CCC(N)=O)C(=O)N[C@H](C(=O)N[C@@H](C)C(=O)N[C@@H](Cc1ccc(O)cc1)C(=O)N[C@@H](Cc1ccccc1)C(=O)N[C@@H](CO)C(=O)N[C@@H](CCC(=O)O)C(=O)N[C@@H](Cc1ccccc1)C(=O)O)C(C)C [3102.0816] (H-QIVAYFSEF-OH) ?
7.9 nM
